meta.source: paper PMC4247381

# targetUnderTest: Kv7.2/Kv7.3 (Homo sapiens, UniProt O43525+O43526)
# Construct: gene KCNQ2; with Kv7.3 (KCNQ3)
# Sequence (O43526 whole entry): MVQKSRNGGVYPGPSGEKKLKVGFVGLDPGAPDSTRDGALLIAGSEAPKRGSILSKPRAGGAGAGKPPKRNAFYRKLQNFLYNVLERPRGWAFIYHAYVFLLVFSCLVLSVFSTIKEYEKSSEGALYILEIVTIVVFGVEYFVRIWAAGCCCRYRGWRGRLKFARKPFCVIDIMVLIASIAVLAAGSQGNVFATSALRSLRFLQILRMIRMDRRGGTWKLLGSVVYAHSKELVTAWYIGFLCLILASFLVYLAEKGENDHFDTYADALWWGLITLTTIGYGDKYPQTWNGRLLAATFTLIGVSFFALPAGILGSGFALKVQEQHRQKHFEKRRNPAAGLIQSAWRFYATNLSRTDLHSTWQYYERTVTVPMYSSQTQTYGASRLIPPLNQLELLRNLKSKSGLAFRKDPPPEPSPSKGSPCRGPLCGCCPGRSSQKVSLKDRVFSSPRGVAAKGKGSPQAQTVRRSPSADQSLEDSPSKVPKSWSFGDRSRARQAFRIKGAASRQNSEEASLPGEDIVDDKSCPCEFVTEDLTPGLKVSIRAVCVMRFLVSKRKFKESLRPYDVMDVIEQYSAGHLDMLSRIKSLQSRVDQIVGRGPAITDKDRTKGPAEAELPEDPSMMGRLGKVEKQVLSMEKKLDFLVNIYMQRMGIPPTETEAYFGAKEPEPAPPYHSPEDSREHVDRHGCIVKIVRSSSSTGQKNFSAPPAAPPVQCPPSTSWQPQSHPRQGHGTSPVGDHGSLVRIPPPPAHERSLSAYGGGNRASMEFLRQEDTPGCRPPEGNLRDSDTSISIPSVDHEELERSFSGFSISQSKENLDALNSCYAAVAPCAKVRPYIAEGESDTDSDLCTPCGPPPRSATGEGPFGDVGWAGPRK
# Sequence (O43525 whole entry): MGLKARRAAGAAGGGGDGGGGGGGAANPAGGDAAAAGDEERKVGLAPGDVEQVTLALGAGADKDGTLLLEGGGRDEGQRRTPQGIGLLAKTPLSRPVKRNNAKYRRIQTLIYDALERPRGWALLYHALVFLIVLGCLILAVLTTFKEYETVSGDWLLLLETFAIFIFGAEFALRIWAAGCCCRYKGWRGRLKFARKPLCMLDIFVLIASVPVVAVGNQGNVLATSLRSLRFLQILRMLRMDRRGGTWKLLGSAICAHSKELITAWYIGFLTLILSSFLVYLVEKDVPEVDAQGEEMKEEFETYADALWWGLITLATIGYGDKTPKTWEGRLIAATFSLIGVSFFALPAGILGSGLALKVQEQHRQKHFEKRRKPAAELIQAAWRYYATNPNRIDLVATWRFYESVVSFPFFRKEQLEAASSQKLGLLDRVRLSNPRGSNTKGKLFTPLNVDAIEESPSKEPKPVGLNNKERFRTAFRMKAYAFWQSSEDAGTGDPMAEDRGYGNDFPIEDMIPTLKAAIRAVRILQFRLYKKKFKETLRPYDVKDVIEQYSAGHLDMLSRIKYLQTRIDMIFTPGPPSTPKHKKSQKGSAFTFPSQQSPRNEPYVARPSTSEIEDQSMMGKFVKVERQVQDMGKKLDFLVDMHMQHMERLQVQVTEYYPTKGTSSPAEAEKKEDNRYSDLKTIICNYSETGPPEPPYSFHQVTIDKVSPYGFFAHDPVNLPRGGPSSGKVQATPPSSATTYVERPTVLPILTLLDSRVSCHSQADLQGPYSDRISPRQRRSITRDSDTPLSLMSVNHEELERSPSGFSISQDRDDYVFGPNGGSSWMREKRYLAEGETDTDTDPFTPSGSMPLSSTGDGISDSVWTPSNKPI
# testDescription: Rb+ efflux assay and whole-cell patch clamp in CHO cells expressing Kv7.[…]/Kv7.[…] (activator)
# Assay type: cell-based
# experimentalContext: read-out: EC50
measuredQuantity: EC50 (µM)
# unit: µM | format: bare number

Query: # get_value(readout='EC50', item= Oc1c(Cl)cc(Cl)cc1Sc1cc(Cl)cc(Cl)c1O )
Reply: 4.9

----------
# targetUnderTest: Cav3.2 (Homo sapiens)
# Sequence (O95180 whole entry): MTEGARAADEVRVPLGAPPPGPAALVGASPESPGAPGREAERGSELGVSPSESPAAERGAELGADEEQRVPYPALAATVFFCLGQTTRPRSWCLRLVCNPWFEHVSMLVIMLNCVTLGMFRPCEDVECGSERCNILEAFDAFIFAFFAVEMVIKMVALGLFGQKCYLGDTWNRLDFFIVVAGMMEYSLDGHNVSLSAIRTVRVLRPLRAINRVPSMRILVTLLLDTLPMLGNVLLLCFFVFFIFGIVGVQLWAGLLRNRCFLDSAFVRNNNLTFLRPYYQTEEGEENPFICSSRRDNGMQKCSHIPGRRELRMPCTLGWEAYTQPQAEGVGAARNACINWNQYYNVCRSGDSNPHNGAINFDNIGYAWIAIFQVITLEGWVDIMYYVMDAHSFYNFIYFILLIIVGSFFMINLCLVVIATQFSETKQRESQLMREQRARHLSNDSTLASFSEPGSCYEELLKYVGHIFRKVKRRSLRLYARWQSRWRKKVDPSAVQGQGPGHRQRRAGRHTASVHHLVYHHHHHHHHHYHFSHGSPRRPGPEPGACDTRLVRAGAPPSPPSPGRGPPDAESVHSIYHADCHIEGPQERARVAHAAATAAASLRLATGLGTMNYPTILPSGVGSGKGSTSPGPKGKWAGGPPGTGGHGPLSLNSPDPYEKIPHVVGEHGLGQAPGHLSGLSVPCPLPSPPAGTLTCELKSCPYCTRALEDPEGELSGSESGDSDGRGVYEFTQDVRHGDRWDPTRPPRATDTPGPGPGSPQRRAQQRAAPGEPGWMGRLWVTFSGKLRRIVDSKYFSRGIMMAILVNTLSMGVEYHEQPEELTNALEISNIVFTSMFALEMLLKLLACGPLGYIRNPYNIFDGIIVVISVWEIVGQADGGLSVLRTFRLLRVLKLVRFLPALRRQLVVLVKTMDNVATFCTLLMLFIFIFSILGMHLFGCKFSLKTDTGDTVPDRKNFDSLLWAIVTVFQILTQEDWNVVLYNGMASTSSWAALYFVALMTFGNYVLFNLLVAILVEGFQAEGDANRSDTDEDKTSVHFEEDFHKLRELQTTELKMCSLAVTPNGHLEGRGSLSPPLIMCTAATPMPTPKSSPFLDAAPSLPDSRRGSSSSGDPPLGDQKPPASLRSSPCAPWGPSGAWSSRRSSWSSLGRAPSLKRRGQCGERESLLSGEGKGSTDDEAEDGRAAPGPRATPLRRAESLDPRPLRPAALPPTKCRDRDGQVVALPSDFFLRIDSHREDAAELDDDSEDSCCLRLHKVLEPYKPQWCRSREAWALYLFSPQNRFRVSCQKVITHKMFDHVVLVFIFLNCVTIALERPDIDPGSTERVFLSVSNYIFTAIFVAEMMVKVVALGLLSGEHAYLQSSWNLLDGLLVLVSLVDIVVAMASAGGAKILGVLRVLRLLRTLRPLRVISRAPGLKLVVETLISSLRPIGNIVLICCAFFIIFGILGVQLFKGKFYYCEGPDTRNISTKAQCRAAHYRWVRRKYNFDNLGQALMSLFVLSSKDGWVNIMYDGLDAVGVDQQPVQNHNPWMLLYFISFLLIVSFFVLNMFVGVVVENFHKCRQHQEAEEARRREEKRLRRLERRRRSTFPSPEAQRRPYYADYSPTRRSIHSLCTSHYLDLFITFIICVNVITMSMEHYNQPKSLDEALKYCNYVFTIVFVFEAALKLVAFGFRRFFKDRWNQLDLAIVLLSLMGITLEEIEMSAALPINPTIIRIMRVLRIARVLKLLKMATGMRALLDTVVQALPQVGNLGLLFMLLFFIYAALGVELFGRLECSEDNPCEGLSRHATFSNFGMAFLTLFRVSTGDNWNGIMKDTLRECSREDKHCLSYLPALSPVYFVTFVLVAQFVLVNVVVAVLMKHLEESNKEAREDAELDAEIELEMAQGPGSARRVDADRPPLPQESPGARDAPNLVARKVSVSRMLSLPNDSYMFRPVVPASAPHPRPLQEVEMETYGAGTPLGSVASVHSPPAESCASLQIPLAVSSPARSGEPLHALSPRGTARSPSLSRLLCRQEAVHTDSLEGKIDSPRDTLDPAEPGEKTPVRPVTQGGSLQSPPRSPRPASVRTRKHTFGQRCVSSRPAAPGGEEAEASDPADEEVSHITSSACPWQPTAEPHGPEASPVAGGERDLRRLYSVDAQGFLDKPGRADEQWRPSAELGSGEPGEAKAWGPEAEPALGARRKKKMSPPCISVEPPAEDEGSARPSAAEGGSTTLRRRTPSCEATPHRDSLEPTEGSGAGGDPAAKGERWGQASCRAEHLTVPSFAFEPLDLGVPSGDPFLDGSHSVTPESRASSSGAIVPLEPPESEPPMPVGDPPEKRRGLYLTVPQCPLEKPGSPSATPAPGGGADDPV
# testDescription: whole-cell patch clamp of recombinant human Cav3.[…] in HEK293 cells (enhancer)
measuredQuantity: EC50

Query: Hello, I am looking for reported EC50 with Cav3.2 (Homo sapiens) for O=C1N=C2C=CC=CN2C12Cc1ccccc1C2 . Could you help?
Reply: 0.12 nM
